Source: ChEMBL document CHEMBL5291721

Target: Amine oxidase [flavin-containing] A (Homo sapiens, UniProt P21397); also: assay procedure not described here
Sequence (P21397 whole entry): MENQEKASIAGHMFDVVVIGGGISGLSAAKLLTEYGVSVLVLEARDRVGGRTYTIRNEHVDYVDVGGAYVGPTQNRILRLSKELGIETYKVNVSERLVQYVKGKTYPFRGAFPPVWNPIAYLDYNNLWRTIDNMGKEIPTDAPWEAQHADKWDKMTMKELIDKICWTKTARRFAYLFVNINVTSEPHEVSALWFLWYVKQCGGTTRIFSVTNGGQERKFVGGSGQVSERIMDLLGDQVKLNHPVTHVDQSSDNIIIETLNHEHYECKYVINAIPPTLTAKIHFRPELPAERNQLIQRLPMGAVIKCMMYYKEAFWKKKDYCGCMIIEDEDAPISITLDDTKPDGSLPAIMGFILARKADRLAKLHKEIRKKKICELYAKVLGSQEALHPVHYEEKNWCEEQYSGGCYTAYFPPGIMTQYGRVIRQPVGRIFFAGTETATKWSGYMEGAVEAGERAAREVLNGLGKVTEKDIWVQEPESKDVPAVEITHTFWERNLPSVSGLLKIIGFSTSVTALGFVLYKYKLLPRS
Type: functional
A collection of compounds and their measured AC50
reportedMetric: AC50

>  <compound>
COc1c(N2CCNC(C)C2)c(F)cc2c(=O)c(C(=O)O)cn(C3CC3)c12 (stereo not drawn)

>  <reportedMetric>
AC50

>  <reported>
> 10 µM

$$$$
>  <compound>
C=C1C[C@@H]2[C@H](CC[C@]3(C)C(=O)CC[C@@H]23)[C@@]2(C)C=CC(=O)C=C12

>  <reportedMetric>
AC50

>  <reported>
> 10 µM

$$$$
>  <compound>
C=C1CC[C@@]2(O)[C@H]3Cc4ccc(O)c5c4[C@@]2(CCN3CC2CC2)[C@H]1O5

>  <reportedMetric>
AC50

>  <reported>
> 30 µM

$$$$
>  <compound>
CN[C@@H]1[C@H](O)[C@H](NC)[C@H]2O[C@@]3(O)C(=O)C[C@@H](C)O[C@H]3O[C@@H]2[C@H]1O

>  <reportedMetric>
AC50

>  <reported>
> 10 µM

$$$$
>  <compound>
CCC(C(=O)O)c1ccc(CC(C)C)cc1 (stereo not drawn)

>  <reportedMetric>
AC50

>  <reported>
> 30 µM

$$$$
>  <compound>
COC(=O)N[C@H](C(=O)N1CCC[C@H]1c1nc(-c2ccc(-c3ccc(-c4c[nH]c([C@@H]5CCCN5C(=O)[C@@H](NC(=O)OC)C(C)C)n4)cc3)cc2)c[nH]1)C(C)C

>  <reportedMetric>
AC50

>  <reported>
> 30 µM

$$$$
>  <compound>
Cc1c(Cl)cccc1Nc1ccccc1C(=O)O

>  <reportedMetric>
AC50

>  <reported>
> 30 µM

$$$$
>  <compound>
CC(C(=O)O)c1ccc(C(=O)c2cccs2)cc1 (stereo not drawn)

>  <reportedMetric>
AC50

>  <reported>
> 10 µM

$$$$
>  <compound>
O=C1NCCN1CCN1CCC(c2cn(-c3ccc(F)cc3)c3ccc(Cl)cc23)CC1

>  <reportedMetric>
AC50

>  <reported>
22 µM

$$$$
>  <compound>
O=C(O)c1cccc(-c2noc(-c3ccccc3F)n2)c1

>  <reportedMetric>
AC50

>  <reported>
5.3 µM

$$$$
>  <compound>
COc1ccccc1OCC(O)COC(N)=O (stereo not drawn)

>  <reportedMetric>
AC50

>  <reported>
> 10 µM

$$$$
>  <compound>
CNC(=O)c1cc(Oc2ccc(NC(=O)Nc3ccc(Cl)c(C(F)(F)F)c3)cc2)ccn1

>  <reportedMetric>
AC50

>  <reported>
8.26 µM

$$$$
>  <compound>
CC(N)Cc1ccccc1 (stereo not drawn)

>  <reportedMetric>
AC50

>  <reported>
> 30 µM

$$$$
>  <compound>
CC(=O)OCC(=O)[C@@]12OC3(CCCC3)O[C@@H]1C[C@H]1[C@@H]3CCC4=CC(=O)C=C[C@]4(C)[C@@]3(F)[C@@H](O)C[C@@]12C [AMCINONIDE]

>  <reportedMetric>
AC50

>  <reported>
> 10 µM

$$$$
>  <compound>
C[N+](C)(C)CCOC(N)=O

>  <reportedMetric>
AC50

>  <reported>
> 10 µM

$$$$
>  <compound>
COc1c(C)c2c(c(O)c1C/C=C(\C)CCC(=O)OCCN1CCOCC1)C(=O)OC2 [MYCOPHENOLATE MOFETIL]

>  <reportedMetric>
AC50

>  <reported>
> 30 µM

$$$$
>  <compound>
CC(=O)c1ccc2c(c1)N(CCCN1CCN(CCO)CC1)c1ccccc1S2

>  <reportedMetric>
AC50

>  <reported>
> 30 µM

$$$$
>  <compound>
CC(C)(N)Cc1ccc(Cl)cc1

>  <reportedMetric>
AC50

>  <reported>
> 10 µM

$$$$
